These measurements were taken from patent US20240245677A1.

# Method notes: in vitro
# Cond: Sprague-Dawley, rat, plasma
Parameter: fraction unbound at 3 h, 2 µM

COc1cc(-c2cn(C)c(=O)c(C)c2C)cc(OC)c1CN1CC[C@H](N2CCN(c3ccc(N[C@H]4CCC(=O)NC4=O)cc3F)CC2)C(F)(F)C1    0.0971

====

# Method notes: Dog Hepatocyte Stability Assay
# Format: in vitro ADME
# Cond: beagle, cryopreserved hepatocytes
Parameter: half-life at 1 µM

COc1cc(-c2cn(C)c(=O)c(C)c2C)cc(OC)c1CN1CC[C@H](N2CCN(c3ccc(N[C@H]4CCC(=O)NC4=O)cc3F)CC2)C(F)(F)C1    > 2 h
